Source of measurements: patent US9248115B2

molecular target: HCV NS5BΔ21 polymerase genotype J4 (1b) (Hepatitis C virus genotype 1b, UniProt O92972)
Sequence (O92972 2420-2989, stated change not applied): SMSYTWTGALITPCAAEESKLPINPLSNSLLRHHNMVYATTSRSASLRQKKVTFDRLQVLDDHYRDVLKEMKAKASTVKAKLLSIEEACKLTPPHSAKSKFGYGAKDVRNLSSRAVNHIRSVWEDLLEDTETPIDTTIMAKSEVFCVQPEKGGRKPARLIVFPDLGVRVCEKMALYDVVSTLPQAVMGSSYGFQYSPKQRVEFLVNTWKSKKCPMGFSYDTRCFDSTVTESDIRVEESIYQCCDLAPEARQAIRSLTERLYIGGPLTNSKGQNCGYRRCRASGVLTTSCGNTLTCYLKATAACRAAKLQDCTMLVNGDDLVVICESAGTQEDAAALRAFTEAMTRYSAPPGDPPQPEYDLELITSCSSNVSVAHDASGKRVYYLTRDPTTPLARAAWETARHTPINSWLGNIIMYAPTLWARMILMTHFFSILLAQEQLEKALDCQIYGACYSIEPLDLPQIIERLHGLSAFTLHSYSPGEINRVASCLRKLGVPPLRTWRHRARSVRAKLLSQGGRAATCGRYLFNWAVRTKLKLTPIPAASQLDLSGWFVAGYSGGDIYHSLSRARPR
ENDPOINT: IC50 (µM)
Express your answer in µM, writing the number without its unit.

q: Please look up its IC50: COc1cc(C2Oc3cc(C4Oc5cc(O)cc(O)c5C(=O)C4OC(=O)CCC(=O)O)ccc3OC2COC(=O)CCC(=O)O)ccc1O (stereo not shown) [silibinin C-2′,3-bis(hydrogensuccinate)]
a: 47

###

test: Example 3: plasma pharmacokinetics of free and total silibinin A and B after Legalon SIL infusion (HPLC-UV); format: in vivo, human; conditions: human, plasma, intravenous, 20 mg/kg, day 1
# MRT listing for each entry below
Express your answer in h, writing the number without its unit.

{"COMPOUND": "COc1cc([C@@H]2Oc3cc([C@H]4Oc5cc(O)cc(O)c5C(=O)[C@@H]4O)ccc3O[C@H]2CO)ccc1O [Silibinin B]", "ENDPOINT": "MRT", "RESULT VALUE": 8.81}

Turning now to a further compound:
q: Please look up its MRT: COc1cc([C@H]2Oc3cc([C@H]4Oc5cc(O)cc(O)c5C(=O)[C@@H]4O)ccc3O[C@@H]2CO)ccc1O [Silibinin A]
a: 8.49
